reported-metric: melting point

INSERT INTO results (compound, result) VALUES
  ('N#CCCN(Cc1ccccc1)CC(O)CO (stereo unspecified)', '132 °C'),
  ('CC1(C)CCc2c(N3CCOCC3)nc3sc4c(NCc5cccc6ccccc56)ncnc4c3c2C1', '266 to 267 °C'),
  ('O=C(O)CCCCCCn1c(-c2ccccc2)nc(-c2ccccc2)c1-c1ccccc1', '149 to 150 °C'),
  ('O=C(NCc1ccn(C2=CC3=C(CC2)CCc2[nH]c(=O)c(=O)[nH]c23)c1)Nc1ccccc1', '> 240 °C'),
  ('CC(C)(C)Oc1cccc(C(=O)Nc2ccc(OCCN3CCOCC3)c3ccccc23)c1', '135 to 136 °C'),
  ('O=C1CC(CCO)c2ccccc2N1 (stereo unspecified)', '119 to 120 °C'),
  ('O=C(CCl)NCc1cc2c(c(Br)c1O)CCCC2=O', '201 to 203 °C'),
  ('CCCc1c(O)cc(O)c(C)c1C(=O)OC', '88 to 91 °C'),
  ('O=C(Nc1cccc2c3c(oc12)CCS(=O)C3)c1c(Cl)cccc1Cl (stereo unspecified)', '> 250 °C'),
  ('CC(O)c1cnc2cc(Oc3cc(-c4ccc(C(F)(F)F)cc4)ncn3)ccc2c1 (stereo unspecified)', '156 to 157 °C'),
  ('CCOC(=O)C(C)Oc1ccc2c(=O)c(-c3ccccc3)coc2c1 (stereo unspecified)', '165 to 166 °C'),
  ('O=C1OC(O)c2c(F)ccc(F)c21 (stereo unspecified)', '125 to 128 °C'),
  ('COc1cc2ncnc(N3CCN(C(=O)Nc4ccc(N)cc4)CC3)c2cc1OC', '215 to 217 °C'),
  ('COc1ccc2c(c1)c(Cc1cc(=O)n(-c3cccc(NC(C)=O)c3)[nH]1)c(C)n2C(=O)c1ccc(Cl)cc1', '124 to 126 °C'),
  ('O=C(Nc1ccccc1)C1=C(Nc2ccccc2)COC1=O', '175 to 176 °C'),
  ('O=C(O)c1cccc(-n2c(-c3ccc(Br)cc3)cc3c2CCCC3)c1', '242 to 244 °C'),
  ('COC(=O)C(NC(=O)c1c(F)cccc1F)c1ccc(Br)s1 (stereo unspecified)', '123 to 124 °C'),
  ('CCOC(=O)c1cc(Cl)n2ncnc2n1', '92.5 to 94 °C'),
  ('Cc1c(Oc2c(F)cc(C(F)(F)F)cc2Cl)nn(C(=O)OC(C)(C)C)c1C', '138 to 139 °C'),
  ('O=C(c1ccc(O)cc1)c1c(-c2ccccc2)sc2cc(O)ccc12', '245 to 246 °C'),
  ('O=C1C(c2ccccc2)=C2CCCCC2N1c1ccc(O)cc1 (stereo unspecified)', '168 °C');

====

reported-metric: melting point

INSERT INTO assay_data (molecule, reported_metric, result) VALUES
  ('O=C1CCCN1CCCNc1cc(C(c2cc(F)ccc2F)S(=O)(=O)c2ccc(Cl)cc2)c(Cl)cn1 (stereo not given)', 'melting point', '78 to 80 °C'),
  ('Cc1nc2ccccc2c(NCc2ccccc2)c1C(C)O (stereo not given)', 'melting point', '176 to 177 °C'),
  ('CCOC(=O)C(=O)Nc1ccc(Cl)cc1[N+](=O)[O-]', 'melting point', '156 to 157 °C'),
  ('CCCOc1ccc(-c2ccc3c(c2)C=C(C(=O)OC)CCN3C=O)cc1', 'melting point', '152 to 153 °C'),
  ('CC1(C)NC(=O)N(c2ccc(Oc3ccccc3)cc2)C1=O', 'melting point', '165 °C'),
  ('CCc1cc(-c2[nH]c3ccc(OC)cc3c2C)cc(CC)c1O', 'melting point', '122 to 124 °C'),
  ('Cc1c(Cl)ccc([N+](=O)[O-])c1C#N', 'melting point', '97 to 98 °C'),
  ('CC1(C)OC(=O)C(=C2NCCN2)C(=O)O1', 'melting point', '181 to 182 °C'),
  ('NNc1ncc(-c2ccc(F)cc2)nn1', 'melting point', '231 to 235 °C'),
  ('CCCCC(=O)N1CCN(C(=O)Nc2ccccc2CCc2cc(C(C)(C)C)c(O)c(C(C)(C)C)c2)CC1', 'melting point', '126 to 128 °C');
